- TARGET_OR_TEST_SYSTEM: Cyclin-dependent kinase 2/cyclin E (Homo sapiens, UniProt P24941)
- ASSAY_METHOD_TEXT: Inhibitory activity against baculovirus expressed Cyclin dependent kinase 2-cyclinE
pIC50: −log10 of the molar value.
Would you kindly list pIC50 for each of these molecules?

Input line: Looking for the measured pIC50 of COC(=O)C(Sc1cnc(NC(C)=O)s1)c1ccccc1 (configuration not stated) , can you help?
Output line: < 6.00

Input line: Looking for the measured pIC50 of COC(=O)C(Sc1cnc(NC(C)=O)s1)C1CCCCC1 (configuration not stated) , can you help?
Output line: < 6.00

Input line: Looking for the measured pIC50 of `CC(=O)Nc1ncc(SCC(C)C)s1` , can you help?
Output line: < 6.00

Input line: Looking for the measured pIC50 of `CCN(C)C(=O)CSc1cnc(NC(C)=O)s1` , can you help?
Output line: < 4.60

Input line: Looking for the measured pIC50 of `CC(=O)Nc1ncc(SCCOc2ccccc2)s1` , can you help?
Output line: < 6.00

Input line: Looking for the measured pIC50 of `COC(=O)c1ccc(CSc2cnc(NC(C)=O)s2)o1` , can you help?
Output line: < 6.00

Input line: Looking for the measured pIC50 of `CC(=O)Nc1ncc(SCC(=O)O)s1` , can you help?
Output line: < 4.60

// provenance: ChEMBL document CHEMBL1135763
